Values compiled from patent US20190359693A1.

# Study System: hemagglutinin (HA) of influenza virus H5N1 A/Vietnam/1194/04 (influenza A virus)
# Experiment Notes: cell-based or functional assay
Endpoint: average neutralization titer (nM)

>>> value_reported("MD2312 (bispecific antibody) EVQLVESGGGLVQAGDSLRLSCAASGPTFGMSAMGWFRQAPGKEREFVAAISGLGNPNYSDDVKGRFTISRENGRNTVYLQMNSLKPEDTAVYYCAQRKVYHVQGGDRPQAYDYWGQGTQVTVSSGGGGSGGGGSEVQLVESGGGLVQAGDSLRISCAASGRTLSIYSMGWFRQAPGKEREFVATIGWNSGRTFYPDSLKGRFTISRDNARNTLYLQMNNLRPEDTAVYYCAAAKGPLRLSSQADYWGQGTQVTVSSGGGGSGGGGSEVQLVESGGGLVQPGGSLRLSCAATGFTLENKAIGWFRQTPGSEREGVLCISKSGSWTYYTDSMRGRFTISRDNAENTVYLQMDSLKPEDTAVYYCATTTAGGGLCWDGTTFSRLASSWGQGTQVTVSS")
5.8
>>> value_reported("MD2306 (bispecific antibody) EVQLVESGGGLVQPGGSLRLSCAVSISIFDIYAMDWYRQAPGKQRDLVATSFRDGSTNYADSVKGRFTISRDNAKNTLYLQMNSLKPEDTAVYLCHVSLYRDPLGVAGGMGVYWGKGALVTVSSGGGGSGGGGSEVQLVESGGGLVQPGGSLRLSCAVSISIFDIYAMDWYRQAPGKQRDLVATSFRDGSTNYADSVKGRFTISRDNAKNTLYLQMNSLKPEDTAVYLCHVSLYRDPLGVAGGMGVYWGKGALVTVSSGGGGSGGGGSEVQLVESGGGLVQPGGSLRLSCAATGFTLENKAIGWFRQTPGSEREGVLCISKSGSWTYYTDSMRGRFTISRDNAENTVYLQMDSLKPEDTAVYYCATTTAGGGLCWDGTTFSRLASSWGQGTQVTVSS")
4.7
